// values below are reported pIC50
- assayed-target: Cholinesterase (Homo sapiens, UniProt P06276)
- Sequence (P06276 whole entry): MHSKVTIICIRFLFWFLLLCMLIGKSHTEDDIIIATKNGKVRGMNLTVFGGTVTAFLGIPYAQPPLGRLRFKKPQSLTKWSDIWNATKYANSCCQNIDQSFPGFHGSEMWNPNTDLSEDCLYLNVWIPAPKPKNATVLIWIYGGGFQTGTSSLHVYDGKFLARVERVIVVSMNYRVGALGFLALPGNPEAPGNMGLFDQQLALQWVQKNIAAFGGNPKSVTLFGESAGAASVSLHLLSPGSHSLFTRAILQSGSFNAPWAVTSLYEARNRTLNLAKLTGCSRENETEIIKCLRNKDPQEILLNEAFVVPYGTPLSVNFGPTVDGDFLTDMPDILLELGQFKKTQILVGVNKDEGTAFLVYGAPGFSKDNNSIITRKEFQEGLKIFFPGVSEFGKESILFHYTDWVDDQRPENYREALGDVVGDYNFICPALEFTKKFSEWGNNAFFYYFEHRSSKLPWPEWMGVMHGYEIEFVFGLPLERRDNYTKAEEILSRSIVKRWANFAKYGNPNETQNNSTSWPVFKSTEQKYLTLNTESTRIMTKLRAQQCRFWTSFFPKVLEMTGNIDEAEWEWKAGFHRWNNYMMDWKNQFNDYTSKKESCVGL
- assay-notes: Inhibition of human plasma BChE pretreated for 30 mins by Ellman technique
Scale: pIC50 equals -log10([C]), with [C] in mol/L.

// solved cases for pIC50 follow
Task: Could you share what pIC50 was measured for CN(C)C(=O)Oc1cccc([N+](C)(C)C)c1 [NEOSTIGMINE METHYLSULFATE] , tested on Cholinesterase (Homo sapiens, UniProt P06276)?
Result: 7.22

Task: Could you share what pIC50 was measured for CN(C)c1cccc(OC(=O)Nc2ccccc2)c1 , tested on Cholinesterase (Homo sapiens, UniProt P06276)?
Result: 4.74

Here is another compound to look at.
Task: Could you share what pIC50 was measured for C[N+](C)(C)c1cccc(OC(=O)Nc2ccccc2)c1 , tested on Cholinesterase (Homo sapiens, UniProt P06276)?
Result: 4.74

====

- assayed-target: Acetylcholinesterase (Homo sapiens)
- Sequence (P22303 whole entry): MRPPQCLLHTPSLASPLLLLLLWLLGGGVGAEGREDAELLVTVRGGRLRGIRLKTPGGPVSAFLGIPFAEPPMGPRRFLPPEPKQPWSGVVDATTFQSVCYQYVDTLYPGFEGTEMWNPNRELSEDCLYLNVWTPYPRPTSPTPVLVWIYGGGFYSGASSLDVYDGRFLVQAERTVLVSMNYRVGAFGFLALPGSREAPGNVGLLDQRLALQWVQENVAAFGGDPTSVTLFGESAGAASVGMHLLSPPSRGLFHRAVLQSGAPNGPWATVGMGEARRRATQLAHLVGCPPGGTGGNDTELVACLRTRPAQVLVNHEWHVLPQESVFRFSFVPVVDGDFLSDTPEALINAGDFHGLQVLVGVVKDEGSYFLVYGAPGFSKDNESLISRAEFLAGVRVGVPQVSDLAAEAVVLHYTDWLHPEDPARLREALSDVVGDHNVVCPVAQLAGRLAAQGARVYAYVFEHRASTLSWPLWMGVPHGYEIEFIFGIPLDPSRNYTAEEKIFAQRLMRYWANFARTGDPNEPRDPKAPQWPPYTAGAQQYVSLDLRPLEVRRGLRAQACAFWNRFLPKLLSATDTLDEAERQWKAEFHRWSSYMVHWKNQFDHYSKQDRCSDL
- assay-notes: Inhibition of human whole RBC AChE pretreated for 30 mins by Ellman technique
property-label: pIC50
Scale: pIC50 equals -log10([C]), with [C] in mol/L.

// solved cases for pIC50 follow
Task: Please report the recorded pIC50 for CC(C)c1ccc(NC(=O)Oc2ccc3c(c2)[C@]2(C)CC[N+](C)(CCc4ccccc4)C2N3C)cc1 (some centres undefined) .
Result: 6.52

Task: Please report the recorded pIC50 for CN(C)c1cccc(OC(=O)Nc2ccccc2)c1 .
Result: 5.60

Task: Please report the recorded pIC50 for CNC(=O)Oc1ccc2c(c1)[C@]1(C)CC[N+](C)(C)C1N2C (some centres undefined) .
Result: 7.58

Task: Please report the recorded pIC50 for CN1c2ccc(OC(=O)Nc3ccccc3)cc2[C@]2(C)CC[N+](C)(C)C12 (some centres undefined) .
Result: 7.60

Others:
Task: Please report the recorded pIC50 for CC(C)c1ccc(NC(=O)Oc2ccc3c(c2)[C@]2(C)CC[N+](C)(C)C2N3C)cc1.[Br-] (some centres undefined) .
Result: 6.84

Task: Please report the recorded pIC50 for Cc1ccccc1NC(=O)Oc1ccc2c(c1)[C@]1(C)CC[N+](C)(C)C1N2C (some centres undefined) .
Result: 7.84

Task: Please report the recorded pIC50 for C[N+](C)(C)c1cccc(OC(=O)Nc2ccccc2)c1 .
Result: 5.73

The values you see were collected from ChEMBL document CHEMBL1177652.
